# tgt: HIV protease (Human immunodeficiency virus type 1 group M subtype B, UniProt P04585)
# Construct: HIV protease is diluted in the assay buffer to a final enzyme concentration of 12.3 nanomolar, based on a molecular weight of 10,780
# protocolSummary: HIV protease enzyme assay (fluorescence, substrate 2-Ile-Nle-Phe(p-NO2)-Gln-ArgNH2)
# Format: biochemical
# experimentalContext: Table 20; HIV protease enzyme assay; read-out: IC50 (uM) or % inhibition: IC50
propertyMeasured: IC50 (µM)

>>> assayvalue("COc1ccc(S(=O)(=O)N(CC(C)C)CC(O)C(Cc2ccccc2)NC(=O)c2cccc(S(C)(=O)=O)c2)cc1 (stereo not drawn)")
0.13
>>> assayvalue("COc1ccc(S(=O)(=O)N(CC(C)C)CC(O)C(Cc2ccccc2)NC(=O)c2ccc(S(C)(=O)=O)cc2)cc1 (stereo not drawn)")
0.092
>>> assayvalue("CCc1ccccc1C(=O)NC(Cc1ccccc1)C(O)CN(CC(C)C)S(=O)(=O)c1ccc(OC)cc1 (stereo not drawn)")
0.0098
>>> assayvalue("CC(C)CN(CC(O)C(Cc1ccccc1)NC(=O)c1ccccc1)S(=O)(=O)c1ccccc1 (stereo not drawn)")
0.047
>>> assayvalue("COc1ccc(S(=O)(=O)N(CC(C)C)CC(O)C(Cc2ccccc2)NC(=O)c2cccc(C)c2C)cc1 (stereo not drawn)")
0.008
>>> assayvalue("COc1ccc(S(=O)(=O)N(CC(C)C)CC(O)C(Cc2ccccc2)NC(=O)C2CCCC2)cc1 (stereo not drawn)")
0.04

---

# tgt: HIV protease (Human immunodeficiency virus type 1 group M subtype B, UniProt P04585)
# Construct: HIV protease is diluted in the assay buffer to a final enzyme concentration of 12.3 nanomolar, based on a molecular weight of 10,780
# protocolSummary: HIV protease enzyme assay (fluorescence, substrate 2-Ile-Nle-Phe(p-NO2)-Gln-ArgNH2)
# Format: biochemical
# experimentalContext: Table 19B; HIV protease enzyme assay; read-out: IC50 (uM) or % inhib: IC50
Labelling field: enter yes (1) if recorded IC50 is less than 0.05 µM. Enter no (0) if it equals or exceeds that cut-off.

>>> label("CC(C)CCN(C[C@@H](O)[C@H](Cc1ccccc1)NC(=O)[C@@H](NC(=O)OCc1ccccc1)C(C)C)S(=O)(=O)c1ccccc1 [Table 5 Entry 1]")
"yes (1)"
>>> label("CC(C)CCN(CC(O)C(Cc1ccccc1)NC(=O)C(NC(=O)CBr)C(C)(C)C)S(=O)(=O)c1ccccc1 (stereo not shown) [Table 12 Entry 10]")
"yes (1)"
>>> label("CC(C)CCN(CC(O)C(Cc1ccccc1)NC(=O)C(N)C(C)(C)C)S(=O)(=O)c1ccccc1 (stereo not shown) [Table 11 Entry 1]")
"no (0)"
>>> label("CCC(C)C(NC(=O)OCc1ccccc1)C(=O)N[C@@H](Cc1ccccc1)[C@H](O)CN(CCC(C)C)S(=O)(=O)c1ccccc1 (stereo partly shown) [Table 3 Entry 4]")
"yes (1)"
>>> label("CSC(C)(C)[C@H](NC(=O)CN(C)C)C(=O)N[C@@H](Cc1ccccc1)[C@H](O)CN(CCC(C)C)S(=O)(=O)c1ccccc1 [Table 14 Entry 3]")
"yes (1)"
>>> label("C=CS(=O)(=O)N(CC(C)C)C[C@@H](O)[C@H](Cc1ccccc1)NC(=O)OCc1ccccc1 [Table 1a Entry 55]")
"no (0)"
